Test system: NCI-H226 cells
Assay: Cell growth assay (CellTiter-Glo)
Format: cell-based, human
Conditions: Homo sapiens, NCI-H226, 168 h, 7 days treatment, CellTiter-Glo luminescence, read-out: H226 CTG IC50
pIC50: −log10 of the molar value.
Provide the recorded pIC50 for the entries that follow.

Hi there! I need pIC50 for each item below, if you can.
1. O=C(O)[C@@H]1CC1c1cc(-c2ccc(C(F)(F)F)cc2)cc2cn(-c3cccnc3)nc12 (mixture of isomers)
2. Cn1cc2cc(Oc3ccc(C(F)(F)F)cc3)cc([C@H]3C[C@@H]3C(=O)N3CC(O)C3)c2n1 (single isomer, unassigned) [Example 58b]
3. CNS(=O)(=O)[C@@H]1C[C@H]1c1cc(Oc2ccc(C(F)(F)F)cc2)cc2c1NCCC2 (racemic)

Given back:
["4.52 to 6.00", "> 7.00", "6.30 to 7.00"]

Hi there! I need pIC50 for each item below, if you can.
1. CO[C@@H]1CN(C(=O)[C@@H]2C[C@H]2c2cc(Oc3ccc(C(F)(F)F)cc3)cc3cn(C)nc23)C[C@H]1O (single isomer, unassigned) [Example 112b]
2. Cn1cc2cc(Oc3ccc(C(F)(F)F)cc3)cc([C@@H]3C[C@H]3C(=O)N3CC4CC(C3)N4)c2n1 (single isomer, unassigned)
3. Cn1cc2cc(Oc3ccc(C(F)(F)F)cc3)cc([C@@H]3C[C@H]3C(=O)NCC#N)c2n1 (single isomer, unassigned)
4. CNC(=O)[C@@H]1CC1c1cc(-c2ccc(C(F)(F)F)cc2)cc2scnc12 (mixture of isomers)
5. O=C(O)[C@@H]1CC1c1cc(Oc2ccc(C(F)(F)F)cc2)cc2cccnc12 (mixture of isomers)
6. Cn1cc2cc(Oc3ccc(C(F)(F)F)cc3)cc(C3C[C@H]3C(=O)N3C[C@@H]4C[C@H]3C[C@H]4O)c2n1 (single isomer, unassigned) [Example 103d]

Given back:
> 7.00
> 7.00
> 7.00
4.52 to 6.00
6.30 to 7.00
> 7.00

Hi there! I need pIC50 for each item below, if you can.
1. Cn1cc2cc(Oc3ccc(C(F)(F)F)cc3)cc([C@@H]3C[C@H]3C(=O)N3CCO[C@@H](CO)C3)c2n1 (single isomer, unassigned)
2. Cn1cc2c(C3C[C@H]3C(=O)O)cc(-c3ccc(C(F)(F)F)cc3)cc2n1 (mixture of isomers)
3. CN(C)C(=O)[C@@H]1CC1c1cc(-c2ccc(C(F)(F)F)cc2)cc2c1cnn2C (mixture of isomers)
4. CNC(=O)[C@@H]1CC1c1cc(Oc2ccc(C(F)(F)F)cc2)cc2cn(C3CC3)nc12 (mixture of isomers)

Given back:
1: > 7.00; 2: 6.30 to 7.00; 3: 6.30 to 7.00; 4: 6.30 to 7.00

* * *

Biological target: TEAD1 (Homo sapiens)
Sequence (P28347 whole entry, species assumed): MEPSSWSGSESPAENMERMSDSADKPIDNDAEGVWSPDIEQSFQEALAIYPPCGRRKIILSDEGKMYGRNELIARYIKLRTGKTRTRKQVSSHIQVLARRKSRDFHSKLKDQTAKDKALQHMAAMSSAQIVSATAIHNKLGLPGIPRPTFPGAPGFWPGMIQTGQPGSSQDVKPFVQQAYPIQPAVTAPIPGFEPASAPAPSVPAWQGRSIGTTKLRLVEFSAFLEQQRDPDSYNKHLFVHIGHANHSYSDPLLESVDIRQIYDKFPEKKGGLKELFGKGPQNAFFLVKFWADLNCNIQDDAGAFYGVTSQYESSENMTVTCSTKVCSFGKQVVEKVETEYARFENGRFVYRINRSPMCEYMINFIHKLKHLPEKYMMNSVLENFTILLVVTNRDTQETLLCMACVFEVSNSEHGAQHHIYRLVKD
Assay: Thermal shift assay TEAD1
Format: binding
outcome_measure: TEAD1 ΔTm (°C)
Answers are plain numbers, in °C.

Asked: TEAD1 ΔTm lookup needed for CO[C@@H]1CN(C(=O)[C@@H]2C[C@H]2c2cc(Oc3ccc(C(F)(F)F)cc3)cc3cn(C)nc23)C[C@H]1O (single isomer, unassigned) [Example 112b] , thanks.
Given back: 8.4

Hi there! I need TEAD1 ΔTm for each item below, if you can.
1. CN(C)C(=O)[C@@H]1CC1c1cc(-c2ccc(C(F)(F)F)cc2)cc2c1cnn2C (mixture of isomers) [Example 26]
2. Cn1ncc2c(C3C[C@H]3C(=O)O)cc(OCc3ccc(C(F)(F)F)cc3)cc21 (mixture of isomers) [Example 19]
3. Cn1cc2cc(Oc3ccc(C(F)(F)F)cc3)cc(C3C[C@H]3C(=O)N3C4COCC3CC(O)C4)c2n1 (single isomer, unassigned) [Example 116b]
4. CNC(=O)[C@@H]1CC1c1cc(Oc2ccc(C(F)(F)F)cc2)cn2ccnc12 (mixture of isomers) [Example 84]
5. [2H]C([2H])([2H])NC(=O)[C@@H]1C[C@H]1c1cc(Oc2ccc(C(F)(F)F)cc2)cc2cn(C)nc12 (single isomer, unassigned) [Example 52]

Given back:
1.7
1.9
5.5
1.0
4.7
